molecular target: HIV Env of isolate 3817.v2.c59 (clade CD) (HIV); assay: cell-based or functional assay

# Binder, IC50 (µg/ml) with constrains
rows = [
    ("ePGDM13 (antibody, V domains shown) VH: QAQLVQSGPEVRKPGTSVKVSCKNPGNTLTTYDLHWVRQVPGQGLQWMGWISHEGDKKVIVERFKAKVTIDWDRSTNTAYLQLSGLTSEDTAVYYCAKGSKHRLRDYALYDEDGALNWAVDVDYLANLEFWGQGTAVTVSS VL: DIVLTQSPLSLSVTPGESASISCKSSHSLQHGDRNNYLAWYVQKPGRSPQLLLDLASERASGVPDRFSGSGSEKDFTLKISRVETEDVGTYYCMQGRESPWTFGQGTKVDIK", "14 µg/mL"),
    ("ePGDM5 (antibody, V domains shown) VH: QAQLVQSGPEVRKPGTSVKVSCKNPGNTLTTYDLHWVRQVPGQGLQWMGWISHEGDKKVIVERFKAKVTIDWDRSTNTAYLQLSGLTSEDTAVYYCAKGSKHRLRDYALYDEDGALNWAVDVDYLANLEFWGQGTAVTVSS VL: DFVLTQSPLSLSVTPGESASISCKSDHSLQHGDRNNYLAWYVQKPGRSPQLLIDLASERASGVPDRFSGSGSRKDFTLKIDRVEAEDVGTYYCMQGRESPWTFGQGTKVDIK", "0.232 µg/mL"),
    ("PGDM1400 (antibody, V domains shown) VH: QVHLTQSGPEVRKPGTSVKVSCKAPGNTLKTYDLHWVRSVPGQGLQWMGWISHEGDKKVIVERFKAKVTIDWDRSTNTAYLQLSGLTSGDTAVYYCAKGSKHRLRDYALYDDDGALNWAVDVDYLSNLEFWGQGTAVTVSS VL: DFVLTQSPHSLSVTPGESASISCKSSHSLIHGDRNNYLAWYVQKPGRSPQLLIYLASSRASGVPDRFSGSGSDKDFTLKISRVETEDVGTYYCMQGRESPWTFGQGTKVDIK", "> 100 µg/mL"),
    ("ePGDM9 (antibody, V domains shown) VH: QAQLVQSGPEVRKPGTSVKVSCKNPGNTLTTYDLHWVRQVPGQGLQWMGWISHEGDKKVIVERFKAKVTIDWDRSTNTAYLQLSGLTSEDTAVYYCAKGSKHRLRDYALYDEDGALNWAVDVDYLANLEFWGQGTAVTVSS VL: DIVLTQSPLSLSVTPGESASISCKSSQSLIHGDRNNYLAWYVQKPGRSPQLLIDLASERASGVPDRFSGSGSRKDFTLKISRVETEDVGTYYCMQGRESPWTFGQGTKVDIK", "0.16 µg/mL"),
]
